EXPERIMENTAL_SYSTEM: T1, human APJ receptor (human, UniProt P35414 1-380)
T1 sequence (looked up): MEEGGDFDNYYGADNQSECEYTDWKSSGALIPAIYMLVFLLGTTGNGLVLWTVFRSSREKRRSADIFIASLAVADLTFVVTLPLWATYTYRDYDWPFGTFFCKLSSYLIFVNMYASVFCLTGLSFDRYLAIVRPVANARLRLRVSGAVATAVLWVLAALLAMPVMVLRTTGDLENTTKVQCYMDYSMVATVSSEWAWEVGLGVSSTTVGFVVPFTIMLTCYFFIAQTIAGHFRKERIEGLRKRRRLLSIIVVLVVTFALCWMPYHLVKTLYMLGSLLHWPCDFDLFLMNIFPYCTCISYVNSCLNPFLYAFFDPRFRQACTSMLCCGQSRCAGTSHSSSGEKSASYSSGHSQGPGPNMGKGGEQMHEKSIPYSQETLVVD
PROTOCOL_DETAILS: cell-based or functional assay
Starred links: 1 amine or outer side, 2 acyl side, 3 side chain; linkers in the order of their positions; H or OH if unused. Non-standard residues stand in square brackets, D forms with d. Primed or numbered codes have the meaning given here. *: point of attachment. Phe(4-Cl) = N[C@@H](Cc1ccc(Cl)cc1)C(=O)O; γGlu = O=C(O)[C@H](CCC(=O)[*:2])N[*:1]; 2Nal = N[C@@H](Cc1ccc2ccccc2c1)C(=O)O; NMeR = CN[C@@H](CCCNC(=N)N)C(=O)O; Tridecanoyl = CCCCCCCCCCCCC(=O)*; hArg = N=C(N)NCCCC[C@H](N)C(=O)O; Cha = N[C@@H](CC1CCCCC1)C(=O)O; αMeL = CC(C)C[C@](C)(N)C(=O)O; Nle = CCCC[C@H](N)C(=O)O; Pip′ = not defined here; AEEA = NCCOCCOCC(=O)O
ENDPOINT: EC50 Human APJ Receptor (GTPγS assay) (nM)
Output spec: scalar in nM, unitless text.

XXXQRPRLSHKGPXPF ({TDA}[AC4Abu][Aeea][Aeea]QrP[NMehArg][BLeu]SHKGP[Nle]P[4-Cl-F]{COOH}) [Apelin polypeptide SEQ ID NO: 384] | 0.957

Please fill in: EC50 Human APJ Receptor (GTPγS assay) reported for Tridecanoyl-[γGlu][AEEA][AEEA]QRP[NMeR][αMeL]SHKGP[Nle]P[2Nal]-OH (SMILES CCCCCCCCCCCCC(=O)N[C@@H](CCC(=O)NCCOCCOCC(=O)NCCOCCOCC(=O)N[C@@H](CCC(N)=O)C(=O)N[C@@H](CCCNC(=N)N)C(=O)N1CCC[C@H]1C(=O)N(C)[C@@H](CCCNC(=N)N)C(=O)N[C@@](C)(CC(C)C)C(=O)N[C@@H](CO)C(=O)N[C@@H](Cc1c[nH]cn1)C(=O)N[C@@H](CCCCN)C(=O)NCC(=O)N1CCC[C@H]1C(=O)N[C@@H](CCCC)C(=O)N1CCC[C@H]1C(=O)N[C@@H](Cc1ccc2ccccc2c1)C(=O)O)C(=O)O) [Apelin polypeptide SEQ ID NO: 472] = 0.0204

Note to self: EC50 Human APJ Receptor (GTPγS assay) recorded for Tridecanoyl-[γGlu][AEEA][AEEA]RQ[Nle]P[hArg][Cha]SAKG[Pip′][Nle]P[Phe(4-Cl)]-OH [Apelin polypeptide SEQ ID NO: 564] was 0.331
